We begin with a simple list: items and their reported IC50.
- System: Trichomonas vaginalis
- protocol: Anti-trichomonas activity against Trichomonas vaginalis GT3 incubated for 48 hrs
- Assay type: functional, organism-based
- measurementConditions: GT3, 48 h
Units required after the number.

Solved cases (4 shown):
compound: Cc1ncc([N+](=O)[O-])n1CCOC(=O)Nc1ccccc1
measurementTarget: Trichomonas vaginalis
result: 0.09 µM
//
compound: Cc1ncc([N+](=O)[O-])n1CCO [METRONIDAZOLE]
measurementTarget: Trichomonas vaginalis
result: 0.93 µM
//
compound: Cc1ncc([N+](=O)[O-])n1CCOC(=O)NC1CCCCC1
measurementTarget: Trichomonas vaginalis
result: 0.06 µM
//
compound: Cc1ncc([N+](=O)[O-])n1CC(C)O (stereo not given) [SECNIDAZOLE]
measurementTarget: Trichomonas vaginalis
result: 13.5 µM

Here is the next item to consider.
Name the recorded IC50 for Cc1ncc([N+](=O)[O-])n1CCOC(=O)Nc1ccc([N+](=O)[O-])cc1 . 9.99 µM
